# Test system: OCI-AML2
# assay_method_text: cell viability relative to vehicle control; higher = less cytotoxic;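 further: after 48 h exposure read by CellTiter-Glo luminescence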
# assay_setup: 10 µM; SRSF2 genotype: P95H/wt
Where a name gives a salt, the structure may show the parent alone.
Listing of recorded cell viability by entry.

[
  {
    "molecule": "COc1cc([C@@H]2Oc3cc([C@H]4Oc5cc(O)cc(O)c5C(=O)[C@@H]4O)ccc3O[C@H]2CO)ccc1O [Silymarin (Silybin B)]",
    "cell viability / %": 106
  },
  {
    "molecule": "CN1C(N)=N[C@](C)(c2cc(NC(=O)c3ccc(F)cn3)ccc2F)CS1(=O)=O [Verubecestat (MK-8931)]",
    "cell viability / %": 99.9
  },
  {
    "molecule": "CN(C)c1ccc2nc3ccc(=[N+](C)C)cc-3sc2c1 [Methylene Blue]",
    "cell viability / %": 5.27
  },
  {
    "molecule": "CS(=O)(=O)CCNCc1ccc(-c2ccc3ncnc(Nc4ccc(OCc5cccc(F)c5)c(Cl)c4)c3c2)o1",
    "cell viability / %": 65
  },
  {
    "molecule": "CC(C)C(C)C(O)C(O)C(C)C1CCC2C3COC(=O)C4CC(O)C(O)CC4(C)C3CCC12C (stereo not given) [Brassinolide]",
    "cell viability / %": 120
  },
  {
    "molecule": "CCOC(=O)c1c2c3c(cccc3[nH]c1=O)C(=O)c1ccccc1-2",
    "cell viability / %": 92.4
  },
  {
    "molecule": "CCN1CCN(Cc2ccc(Nc3ncc(F)c(-c4cc(F)c5nc(C)n(C(C)C)c5c4)n3)nc2)CC1",
    "cell viability / %": 0.29
  },
  {
    "molecule": "CC(C)c1onc(-c2c(Cl)cccc2Cl)c1COc1ccc(/C=C/c2cccc(C(=O)O)c2)c(Cl)c1",
    "cell viability / %": 69.3
  },
  {
    "molecule": "COc1ccc(C[C@@H](C)NC[C@H](O)c2ccc(O)c(NC=O)c2)cc1 [Arformoterol Tartrate]",
    "cell viability / %": 109
  },
  {
    "molecule": "COc1ccc(CC(=O)Nc2nc3c(s2)CCc2ccccc2-3)cc1OC",
    "cell viability / %": 27.9
  },
  {
    "molecule": "Fc1ccc(-c2c3cccc(C(F)(F)F)c3nn2Cc2ccc(F)cc2Cl)cc1",
    "cell viability / %": 114
  },
  {
    "molecule": "Clc1cccc(CN=C2Nc3ccccc3NC23CCNCC3)c1 [Liproxstatin-1]",
    "cell viability / %": 93.5
  },
  {
    "molecule": "O=C(Nc1ccc(O)c(C(=O)O)c1)c1cccc(NC(=O)c2ccco2)c1",
    "cell viability / %": 105
  },
  {
    "molecule": "O=C1NC(=O)C(c2ccccc2)(c2ccccc2)N1 [Phenytoin (Lepitoin)]",
    "cell viability / %": 105
  },
  {
    "molecule": "COc1cc2c(cc1OC)-c1c(C)c3ccc(OC)c(OC)c3c[n+]1CC2 [Dehydrocorydalin]",
    "cell viability / %": 79.8
  },
  {
    "molecule": "O=C(O)C=C(CC(=O)O)C(=O)O [cis-Aconitic acid]",
    "cell viability / %": 97.9
  },
  {
    "molecule": "O=C(O)CC1CC(c2ccccc2)=NO1 (stereo not given)",
    "cell viability / %": 89.5
  },
  {
    "molecule": "C[C@@]1(c2cc(-c3cncnc3)c(F)cc2F)CCSC(N)=N1",
    "cell viability / %": 100
  },
  {
    "molecule": "C[C@]1(c2nc3c(C(N)=O)cccc3[nH]2)CCCN1 [ABT-888 (Veliparib)]",
    "cell viability / %": 70.2
  },
  {
    "molecule": "CC(C)NCC(O)c1ccc(NS(C)(=O)=O)cc1 (stereo not given) [Sotalol HCl]",
    "cell viability / %": 106
  },
  {
    "molecule": "COc1cc(C[C@H](C)[C@H](C)Cc2ccc3c(c2)OCO3)ccc1O [Anwuligan]",
    "cell viability / %": 76.8
  },
  {
    "molecule": "CC(C)Oc1ccc(-c2nn([C@@H](C)c3oc4ccc(F)cc4c(=O)c3-c3cccc(F)c3)c3ncnc(N)c23)cc1F",
    "cell viability / %": 67.4
  },
  {
    "molecule": "Cc1ccc(C(C)C)cc1 [p-Cymene]",
    "cell viability / %": 117
  },
  {
    "molecule": "O=C1C(Cl)=C(N2CCOCC2)C(=O)N1c1ccc(Cl)c(Cl)c1",
    "cell viability / %": 83.3
  },
  {
    "molecule": "Clc1ccc2c(N3CCN(CCCN4CCN(c5ccnc6cc(Cl)ccc56)CC4)CC3)ccnc2c1 [Piperaquine phosphate]",
    "cell viability / %": 92.7
  },
  {
    "molecule": "Cc1ncc([N+](=O)[O-])n1C [Dimetridazole]",
    "cell viability / %": 105
  },
  {
    "molecule": "O=C(NO)c1cccc(C(=O)NCCc2ccccc2)c1",
    "cell viability / %": 90.7
  },
  {
    "molecule": "CCCC(=O)OCOC(=O)C1=C(C)NC(C)=C(C(=O)OC)C1c1cccc(Cl)c1Cl (stereo not given) [Clevidipine Butyrate]",
    "cell viability / %": 107
  },
  {
    "molecule": "CS(=O)(=O)c1ccc(C(=O)Nc2ccc(Cl)c(-c3ccccn3)c2)c(Cl)c1 [Vismodegib (GDC-0449)]",
    "cell viability / %": 96
  },
  {
    "molecule": "CO[C@H]1[C@H](O)[C@@H](O)[C@@H](O)[C@H](O)[C@@H]1O [D-Pinitol]",
    "cell viability / %": 112
  },
  {
    "molecule": "CCCCCCNC(=O)n1cc(F)c(=O)[nH]c1=O [Carmofur]",
    "cell viability / %": 57.9
  },
  {
    "molecule": "CC1(C)OC(=O)C=C[C@]2(C)[C@H]3CC[C@@]4(C)[C@H](c5ccoc5)OC(=O)[C@H]5O[C@]54[C@]3(C)C(=O)C[C@@H]12 [Obacunone]",
    "cell viability / %": 91.1
  },
  {
    "molecule": "NCC(=O)CCC(=O)O [5-Aminolevulinic acid hydrochloride]",
    "cell viability / %": 108
  },
  {
    "molecule": "C[C@@H]1O[C@@H](OC[C@H]2O[C@@H](Oc3c(-c4ccc(O)c(O)c4)oc4cc(O)cc(O)c4c3=O)[C@H](O)[C@@H](O)[C@@H]2O)[C@H](O)[C@H](O)[C@H]1O [Rutin (Rutoside)]",
    "cell viability / %": 105
  },
  {
    "molecule": "CC(C)Oc1ccc2c(=O)c(-c3ccccc3)coc2c1 [Ipriflavone]",
    "cell viability / %": 71.6
  }
]

----------
# Tested on: MOLM14
# assay_method_text: cell viability relative to vehicle control; higher = less cytotoxic
# assay_setup: 10 µM; SRSF2 genotype: SRSF2 wt/wt
Structures can show the parent of a compound that is named as a salt.

[
  {
    "compound": "COC1(c2sc3c(N4CCOCC4)nc(-c4cnc(N)nc4)nc3c2C)COC1",
    "measured_target": "MOLM14",
    "cell viability, %": 24.1
  },
  {
    "compound": "O=C(O)c1ccc(O)c(O)c1 [Protocatechuic acid]",
    "measured_target": "MOLM14",
    "cell viability, %": 103
  },
  {
    "compound": "c1cc(CN2CCCNCCNCCCNCC2)ccc1CN1CCCNCCNCCCNCC1 [Plerixafor]",
    "measured_target": "MOLM14",
    "cell viability, %": 94.7
  },
  {
    "compound": "C[S+](CC[C@H](N)C(=O)[O-])C[C@H]1O[C@@H](n2cnc3c(N)ncnc32)[C@H](O)[C@@H]1O (some centres undefined) [Ademetionine disulfate tosylate]",
    "measured_target": "MOLM14",
    "cell viability, %": 115
  }
]

----------
Listing of recorded cell viability by entry.
# Test system: MARIMO
# assay_method_text: cell viability relative to vehicle control; higher = less cytotoxic
# assay_setup: 10 µM; SRSF2 genotype: SRSF2 wt/wt
Where a name gives a salt, the structure may show the parent alone.
measurement_kind: cell viability (%)

[
  {
    "molecule": "CC1(C)O[C@@H]2C[C@H]3[C@@H]4C[C@H](F)C5=CC(=O)C=C[C@]5(C)[C@@]4(F)[C@@H](O)C[C@]3(C)[C@]2(C(=O)CO)O1 [Fluocinolone acetonide (Flucort-N)]",
    "experimental_value": 104
  },
  {
    "molecule": "COc1ccc(-c2cc(=O)c3c(O)c(OC)c(O)c(OC)c3o2)cc1 [Lysionotin]",
    "experimental_value": 114
  },
  {
    "molecule": "COc1ccc(Cn2ccc3ccc(C(=O)NO)cc32)cc1",
    "experimental_value": 75.9
  },
  {
    "molecule": "Cc1c(Cc2ccc3ccccc3n2)c2cc(F)ccc2n1CC(=O)O",
    "experimental_value": 108
  },
  {
    "molecule": "CC(NCCc1ccc(O)cc1)C(O)c1ccc(O)cc1 (centres undefined) [Ritodrine hydrochloride (Yutopar)]",
    "experimental_value": 106
  },
  {
    "molecule": "CC(=O)[C@H]1CC[C@H]2[C@@H]3CC=C4C[C@@H](O)CC[C@]4(C)[C@H]3CC[C@]12C [Pregnenolone]",
    "experimental_value": 105
  },
  {
    "molecule": "C[C@@H](CN1CC(=O)NC(=O)C1)N1CC(=O)NC(=O)C1 [Dexrazoxane Hydrochloride]",
    "experimental_value": 96.4
  },
  {
    "molecule": "Cc1c(NC(=O)c2ccc(C(C)(C)C)cc2)cccc1-c1cn(C)c(=O)c(Nc2ccc(C(=O)N3CCOCC3)cc2)n1",
    "experimental_value": 97.4
  },
  {
    "molecule": "Cn1ccnc1S [Methimazole (Tapazole, Northyx)]",
    "experimental_value": 99.8
  },
  {
    "molecule": "CC1Cc2ccccc2N1NC(=O)c1ccc(Cl)c(S(N)(=O)=O)c1 (centres undefined) [Indapamide (Lozol)]",
    "experimental_value": 105
  },
  {
    "molecule": "C=CC(=O)Nc1cc2c(Nc3ccc(F)c(Cl)c3)ncnc2cc1OCCCN1CCOCC1 [CI-1033 (Canertinib)]",
    "experimental_value": 61.5
  },
  {
    "molecule": "CC(C(=O)O)c1ccc2c(c1)CC(=O)c1ccccc1S2 (centres undefined) [Zaltoprofen]",
    "experimental_value": 103
  },
  {
    "molecule": "O=C(Nc1ccncc1)c1cc([N+](=O)[O-])ccc1Cl",
    "experimental_value": 102
  },
  {
    "molecule": "CC(C)=CC(O)C/C(C)=C/COc1c2ccoc2cc2oc(=O)ccc12 (centres undefined) [Notopterol]",
    "experimental_value": 57.1
  },
  {
    "molecule": "CN1CCN(Cc2ccc(-c3cnc4[nH]cc(-c5ccc6[nH]ccc6c5)c4c3)cc2)CC1",
    "experimental_value": 0.44
  },
  {
    "molecule": "CC(C)[C@H](NC(=O)OCc1ccccc1)C(=O)N[C@@H](C)C(=O)N[C@@H](CC(=O)O)C(=O)CF",
    "experimental_value": 102
  },
  {
    "molecule": "COc1ccc(-c2cc(=O)c3c(OC)c(OC)c(OC)c(OC)c3o2)cc1 [Tangeretin (Tangeritin)]",
    "experimental_value": 90.8
  },
  {
    "molecule": "CCn1c(=O)c(-c2ccc(Cl)cc2Cl)cc2cnc(Nc3ccc(N4CCNCC4)c(F)c3)nc21",
    "experimental_value": 2.21
  },
  {
    "molecule": "C[C@H]1C[C@H]2[C@@H]3CCC4=CC(=O)C=C[C@]4(C)[C@H]3C(=O)C[C@]2(C)[C@@]1(O)C(=O)CO [Betapar (Meprednisone)]",
    "experimental_value": 106
  },
  {
    "molecule": "CN1CCN(c2c(F)cc3c(=O)c(C(=O)O)cn4c3c2OCN4C)CC1 [Marbofloxacin]",
    "experimental_value": 109
  },
  {
    "molecule": "O=c1c2cc(O[C@@H]3O[C@H](CO)[C@@H](O)[C@H](O)[C@H]3O)c(O)cc2oc2cc(O)c([C@@H]3O[C@H](CO)[C@@H](O)[C@H](O)[C@H]3O)c(O)c12 [Neomangiferin]",
    "experimental_value": 91.2
  },
  {
    "molecule": "Nc1cc[nH]c(=O)n1 [Cytosine]",
    "experimental_value": 110
  },
  {
    "molecule": "O=C(c1cccc(Br)c1)N1CCC(N2CCCC2)CC1",
    "experimental_value": 110
  },
  {
    "molecule": "Cc1ccccc1C(OCCN(C)C)c1ccccc1 (centres undefined) [Orphenadrine Hydrochloride]",
    "experimental_value": 92.2
  },
  {
    "molecule": "CC(=O)OC/C=C(\\C)CCC=C(C)C [Geranyl acetate]",
    "experimental_value": 112
  },
  {
    "molecule": "NC(=O)N1c2ccccc2C=Cc2ccccc21 [Carbamazepine (Carbatrol)]",
    "experimental_value": 97.6
  },
  {
    "molecule": "OC1CCC(Oc2cccc3cnc(Nc4ccc5nc[nH]c5c4)nc23)CC1 (centres undefined)",
    "experimental_value": 4.14
  },
  {
    "molecule": "C[C@@H]1O[C@@H](O[C@H]2[C@H](O[C@H]3CC[C@@]4(C)[C@@H](CC[C@]5(C)[C@@H]4CC=C4[C@@H]6CC(C)(C)CC[C@]6(C(=O)O)CC[C@]45C)[C@]3(C)CO)OC[C@H](O)[C@@H]2O)[C@H](O)[C@H](O)[C@H]1O",
    "experimental_value": 74.1
  },
  {
    "molecule": "Nc1ncc(-c2ccnc(Nc3ccncc3)n2)c(CC2CC2)n1",
    "experimental_value": 66.9
  },
  {
    "molecule": "O=c1cc(CN2CCOCC2)occ1OCCCCCSc1ccnc2cc(C(F)(F)F)ccc12",
    "experimental_value": 37.7
  },
  {
    "molecule": "CCn1cc(C(=O)O)c(=O)c2ccc(C)nc21 [Nalidixic acid (NegGram)]",
    "experimental_value": 101
  },
  {
    "molecule": "O=C(NCCCNc1nc(Nc2cccc(NC(=O)N3CCCC3)c2)ncc1I)c1cccs1",
    "experimental_value": 56.7
  },
  {
    "molecule": "COc1c(N2C[C@@H]3CCCN[C@@H]3C2)c(F)cc2c(=O)c(C(=O)O)cn(C3CC3)c12 [Moxifloxacin hydrochloride]",
    "experimental_value": 105
  },
  {
    "molecule": "CC(C)C[C@H](NC(=O)CNC(=O)c1cc(Cl)ccc1Cl)B(O)O [Ixazomib (MLN2238)]",
    "experimental_value": 3.15
  }
]

Reference for the values: the supplement of paper PMC10981050
